src = patent USRE40387E1

experimentNotes: Pharmacokinetics and absolute oral bioavailability of formulations in beagle dogs
Type: in vivo, adult male beagle dogs
condition: male, beagle, dog, plasma; dogs, IV Compound (A) 0.5 mg/kg, n = 3; read-out: TMAX, median
readoutLabel: Tmax (min)

1. CC1=NC(/C=C/[C@@H]2C[C@@H](O)[C@](C)(O)CCC[C@H](C)[C@H](O)[C@@H](C)C(=O)C(C)(C)[C@@H](O)CC(=O)N2)CS1 (stereo partly shown)	10.2

====

experimentNotes: Pharmacokinetics and absolute oral bioavailability of formulations in beagle dogs
Type: in vivo, adult male beagle dogs
condition: male, beagle, dog, plasma; dogs, buffered oral solution of Compound (A) 2 mg/kg, n = 3
readoutLabel: Cmax (ng/mL)

1. CC1=NC(/C=C/[C@@H]2C[C@@H](O)[C@](C)(O)CCC[C@H](C)[C@H](O)[C@@H](C)C(=O)C(C)(C)[C@@H](O)CC(=O)N2)CS1 (stereo partly shown)	27.2

====

experimentNotes: Kinetics in single dose IV toxicology study in dogs
Assay type: in vivo
condition: both sexes, dog, plasma, IV infusion of Compound (A) 0.5 mg/kg, read-out: mean CMAX of Compound (B) in plasma
readoutLabel: Cmax (ng/mL)

1. CC1=NC(/C=C/[C@@H]2C[C@@H](O)[C@](C)(O)CCC[C@H](C)[C@H](O)[C@@H](C)C(=O)C(C)(C)[C@@H](O)CC(=O)N2)CS1 (stereo partly shown)	95.6

====

experimentNotes: Kinetics in single dose IV toxicology study in dogs
Assay type: in vivo
condition: both sexes, dog, plasma, IV infusion of Compound (A) 0.5 mg/kg
readoutLabel: AUC (ng·h/mL)

1. CC1=NC(/C=C/[C@@H]2C[C@@H](O)[C@](C)(O)CCC[C@H](C)[C@H](O)[C@@H](C)C(=O)C(C)(C)[C@@H](O)CC(=O)N2)CS1 (stereo partly shown)	55

====

experimentNotes: Pharmacokinetics and absolute oral bioavailability of formulations in beagle dogs
Assay type: in vivo, adult male beagle dogs
condition: male, beagle, dog, plasma; dogs, IV Compound (A) 0.5 mg/kg, T = 24 h
readoutLabel: AUC(0-t) (ng·h/mL)

1) CC1=NC(/C=C/[C@@H]2C[C@@H](O)[C@](C)(O)CCC[C@H](C)[C@H](O)[C@@H](C)C(=O)C(C)(C)[C@@H](O)CC(=O)N2)CS1 (stereo partly shown) [Compound (B)]	0.69

====

Catalogue of compounds with associated Papp
experimentNotes: in vitro
condition: human, Caco-2
readoutLabel: Papp

1. O=C(O)c1ccccc1O [salicylic acid, reference compound]	> 20 ×10⁻⁶ cm/s
2. CC(=O)Nc1ccc(O)cc1 [acetaminophen, reference compound]	> 20 ×10⁻⁶ cm/s
3. CC(C)Cc1ccc(C(C)C(=O)O)cc1 (stereo not drawn) [ibuprofen, reference compound]	> 20 ×10⁻⁶ cm/s

====

experimentNotes: Pharmacokinetics and absolute oral bioavailability of formulations in beagle dogs
Type: in vivo, adult male beagle dogs
condition: male, beagle, dog, plasma; dogs, buffered oral solution of Compound (A) 2 mg/kg, n = 3; read-out: TMAX, median
readoutLabel: Tmax (min)

1) CC1=NC(/C=C/[C@@H]2C[C@@H](O)[C@](C)(O)CCC[C@H](C)[C@H](O)[C@@H](C)C(=O)C(C)(C)[C@@H](O)CC(=O)N2)CS1 (stereo partly shown) [Compound (B)]	45

====

experimentNotes: Kinetics in single dose IV toxicology study in dogs
Assay type: in vivo
condition: both sexes, dog, plasma, IV infusion of Compound (A) 5 mg/kg, read-out: mean CMAX of Compound (B) in plasma
readoutLabel: Cmax

1. CC1=NC(/C=C/[C@@H]2C[C@@H](O)[C@](C)(O)CCC[C@H](C)[C@H](O)[C@@H](C)C(=O)C(C)(C)[C@@H](O)CC(=O)N2)CS1 (stereo partly shown)	984 ng/mL
